System: SK-BR-3 cells (HER2 High, human breast adenocarcinoma)
ASSAY OVERVIEW: CellTiter-Glo luminescence viability assay with SN-38 ADCs
Assay type: cell-based
APPLIED CONDITIONS: 96 h exposure (continuous), n = 3; read-out: SK-BR-3 IC50 Mean (±St. Dev.)
EXPERIMENTAL ENDPOINT: pIC50
Hey, just a heads up that pIC50 is the negative log base 10 of the concentration in molar.

For record CCc1c2c(nc3ccc(O)cc13)-c1cc3c(c(=O)n1C2)COC(=O)[C@]3(O)CC the listed pIC50 is 8.93
